- assayInfo: Partition coefficient (logP)
- Format: physicochemical
- studyConditions: octanol/water
measurementName: logP

molecule | logP
O=C1CCC(c2ccc(-n3ccnc3)cc2)=NN1 | 0.96
CC1CC(O)=NN=C1c1ccc(-n2ccnc2)cc1 (stereo unspecified) | 1.29
CC(Cl)C(=O)Nc1ccc(C2=NNC(=O)CC2C)cc1 (stereo unspecified) | 1.4
CC1CC(=O)NN=C1/C=C/c1ccc(-n2ccnc2)cc1.Cl (stereo unspecified) | 1.71
CC1CC(=O)NN=C1c1ccc(-n2cnc3c2CCCC3)cc1 (stereo unspecified) [TETRAHYDROBENXIMIDAZOLE] | 2.52
O=C1CCC(/C=C/c2ccc(-n3ccnc3)cc2)=NN1 | 1.21

----------
- assayInfo: Inhibition of phosphodiesterase 3 from guinea pig cardiac tissue at 1*10e-7-1*10e-4 M
- Set-up: species or system Cavia porcellus
measurementName: pIC50
# pIC50 = -log10(concentration in molar units)

input: Requested read-out: pIC50. Entry: CC1CC(=O)NN=C1/C=C/c1ccc(-n2ccnc2)cc1.Cl (stereo unspecified)
output: 6.60

----------
- assayInfo: Partition coefficient (logP)
- Type: physicochemical
- studyConditions: octanol/water
measurementName: logP

compound | logP
CC1CC(=O)NN=C1/C=C/c1ccc(-n2cnc3c2CCCC3)cc1 (stereo not drawn) | 3.1

1 = O=C1CCC(/C=C/c2ccc(-n3cnc4c3CCCC4)cc2)=NN1
2 = CC(=O)Nc1ccc(/C=C/C2=NNC(=O)CC2C)cc1 (stereo not drawn)
input: Could you point out whether the larger logP belongs to 1 or to 2 ? State the label of the item chosen.
output: 1
(1: 2.47, 2: 1.27)

----------
- System: Canis familiaris
- assayInfo: Hemodynamic activity in anesthetized dog as percent change from baseline (2271 mmHg/s) in left ventricular myocardial activity at 0.1 mg/kg administered intravenously
- Type: functional, Canis lupus familiaris, Heart left ventricle
- studyConditions: route intravenous
The following compounds are listed with their measured Change values.
Supply the numeric figure in %, leaving out any unit text.

input: Requested read-out: Change. Entry: CCc1[nH]c(=O)[nH]c1C(=O)c1ccncc1
output: 41

input: Requested read-out: Change. Entry: Nc1cc(-c2ccncc2)c[nH]c1=O
output: 9

input: Requested read-out: Change. Entry: O=C1CCC(c2ccc(-n3ccnc3)cc2)=NN1
output: 74

input: Requested read-out: Change. Entry: Cc1[nH]c(=O)c(C#N)cc1-c1ccncc1
output: 113
